- TARGET OF ASSAY: Homeodomain-interacting protein kinase 2 (Homo sapiens)
- Sequence (Q9H2X6 whole entry): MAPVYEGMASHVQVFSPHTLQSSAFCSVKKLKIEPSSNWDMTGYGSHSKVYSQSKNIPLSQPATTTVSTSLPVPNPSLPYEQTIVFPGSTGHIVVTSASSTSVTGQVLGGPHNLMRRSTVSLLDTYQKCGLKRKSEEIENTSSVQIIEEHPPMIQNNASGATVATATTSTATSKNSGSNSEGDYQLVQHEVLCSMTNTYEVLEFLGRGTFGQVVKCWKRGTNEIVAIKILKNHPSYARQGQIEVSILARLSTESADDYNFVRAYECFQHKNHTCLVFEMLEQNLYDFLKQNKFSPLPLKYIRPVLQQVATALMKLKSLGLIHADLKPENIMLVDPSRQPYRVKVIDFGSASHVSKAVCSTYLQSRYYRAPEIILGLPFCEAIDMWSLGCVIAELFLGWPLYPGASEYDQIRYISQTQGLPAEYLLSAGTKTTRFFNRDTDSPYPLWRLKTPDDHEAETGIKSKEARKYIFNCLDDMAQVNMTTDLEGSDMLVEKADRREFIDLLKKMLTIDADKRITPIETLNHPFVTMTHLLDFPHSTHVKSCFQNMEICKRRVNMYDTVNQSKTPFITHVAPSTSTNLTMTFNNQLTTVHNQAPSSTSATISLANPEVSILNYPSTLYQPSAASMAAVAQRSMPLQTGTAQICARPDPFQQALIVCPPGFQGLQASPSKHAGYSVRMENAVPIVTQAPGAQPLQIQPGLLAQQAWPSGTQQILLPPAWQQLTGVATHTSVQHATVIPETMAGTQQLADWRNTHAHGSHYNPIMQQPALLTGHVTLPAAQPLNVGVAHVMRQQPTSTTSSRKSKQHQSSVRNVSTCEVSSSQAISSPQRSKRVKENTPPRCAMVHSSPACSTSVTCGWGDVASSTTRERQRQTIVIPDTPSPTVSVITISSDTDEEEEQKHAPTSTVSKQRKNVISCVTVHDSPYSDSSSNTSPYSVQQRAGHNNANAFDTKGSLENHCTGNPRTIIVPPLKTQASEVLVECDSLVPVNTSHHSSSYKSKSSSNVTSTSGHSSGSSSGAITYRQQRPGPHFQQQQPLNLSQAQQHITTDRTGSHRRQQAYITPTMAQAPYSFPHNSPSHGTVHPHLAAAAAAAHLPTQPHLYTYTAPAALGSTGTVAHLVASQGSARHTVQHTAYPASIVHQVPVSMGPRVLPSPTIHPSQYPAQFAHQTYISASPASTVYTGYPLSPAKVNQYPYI
- RUN DESCRIPTION: Binding affinity to recombinant full-length N-terminal His-FLAG-tagged HIPK2 (unknown origin) expressed in baculovirus infected Sf9 insect cells incubated for 1 hr by TR-FRET assay
REPORTED ENDPOINT: pKd
# pKd is unitless: minus log10 of the molar concentration; print number only

Send back Homeodomain-interacting protein kinase 2 (Homo sapiens) pKd of `CO[C@@H]1[C@H](N(C)CCOCCOCCOCCNC(=O)CCC2=[N+]3C(=Cc4c(C)cc(C)n4[B-]3(F)F)C=C2)C[C@H]2O[C@]1(C)n1c3ccccc3c3c4c(c5c6ccccc6n2c5c31)C(=O)NC4` only. 6.25

###

Measured Kd values are reported for all entries that follow.
- TARGET OF ASSAY: Serine/threonine-protein kinase Sgk1 (Homo sapiens)
- Sequence (O00141 whole entry): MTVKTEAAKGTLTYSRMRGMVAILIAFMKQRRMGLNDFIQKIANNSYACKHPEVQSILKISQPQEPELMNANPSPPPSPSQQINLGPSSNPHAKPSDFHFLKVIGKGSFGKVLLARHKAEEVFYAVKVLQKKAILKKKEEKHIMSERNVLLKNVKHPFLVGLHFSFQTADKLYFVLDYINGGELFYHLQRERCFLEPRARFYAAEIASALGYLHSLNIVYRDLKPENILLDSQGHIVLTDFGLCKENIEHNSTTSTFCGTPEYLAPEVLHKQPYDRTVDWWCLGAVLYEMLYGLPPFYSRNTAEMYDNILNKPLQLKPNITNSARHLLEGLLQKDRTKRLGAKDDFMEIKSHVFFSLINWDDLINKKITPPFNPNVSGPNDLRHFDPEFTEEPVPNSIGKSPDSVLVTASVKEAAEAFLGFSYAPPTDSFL
- RUN DESCRIPTION: Binding affinity to recombinant full-length N-terminal His-FLAG-GST-tagged SGK1 (unknown origin) (60 to 431 residues) expressed in baculovirus infected Sf9 insect cells incubated for 1 hr by TR-FRET assay

CO[C@@H]1[C@H](NCCOCCOCCOCCNC(=O)CCC2=[N+]3C(=Cc4c(C)cc(C)n4[B-]3(F)F)C=C2)C[C@H]2O[C@]1(C)n1c3ccccc3c3c4c(c5c6ccccc6n2c5c31)C(=O)NC4 : 331 nM

The record that follows has no Kd shown yet.
Send back Serine/threonine-protein kinase Sgk1 (Homo sapiens) Kd of `CO[C@@H]1[C@H](N(C)CCOCCOCCOCCNC(=O)CCC2=[N+]3C(=Cc4c(C)cc(C)n4[B-]3(F)F)C=C2)C[C@H]2O[C@]1(C)n1c3ccccc3c3c4c(c5c6ccccc6n2c5c31)C(=O)NC4` only. 566 nM

###

- TARGET OF ASSAY: Tyrosine-protein kinase JAK2 (Homo sapiens)
- Sequence (O60674 whole entry, the tested form may be a part): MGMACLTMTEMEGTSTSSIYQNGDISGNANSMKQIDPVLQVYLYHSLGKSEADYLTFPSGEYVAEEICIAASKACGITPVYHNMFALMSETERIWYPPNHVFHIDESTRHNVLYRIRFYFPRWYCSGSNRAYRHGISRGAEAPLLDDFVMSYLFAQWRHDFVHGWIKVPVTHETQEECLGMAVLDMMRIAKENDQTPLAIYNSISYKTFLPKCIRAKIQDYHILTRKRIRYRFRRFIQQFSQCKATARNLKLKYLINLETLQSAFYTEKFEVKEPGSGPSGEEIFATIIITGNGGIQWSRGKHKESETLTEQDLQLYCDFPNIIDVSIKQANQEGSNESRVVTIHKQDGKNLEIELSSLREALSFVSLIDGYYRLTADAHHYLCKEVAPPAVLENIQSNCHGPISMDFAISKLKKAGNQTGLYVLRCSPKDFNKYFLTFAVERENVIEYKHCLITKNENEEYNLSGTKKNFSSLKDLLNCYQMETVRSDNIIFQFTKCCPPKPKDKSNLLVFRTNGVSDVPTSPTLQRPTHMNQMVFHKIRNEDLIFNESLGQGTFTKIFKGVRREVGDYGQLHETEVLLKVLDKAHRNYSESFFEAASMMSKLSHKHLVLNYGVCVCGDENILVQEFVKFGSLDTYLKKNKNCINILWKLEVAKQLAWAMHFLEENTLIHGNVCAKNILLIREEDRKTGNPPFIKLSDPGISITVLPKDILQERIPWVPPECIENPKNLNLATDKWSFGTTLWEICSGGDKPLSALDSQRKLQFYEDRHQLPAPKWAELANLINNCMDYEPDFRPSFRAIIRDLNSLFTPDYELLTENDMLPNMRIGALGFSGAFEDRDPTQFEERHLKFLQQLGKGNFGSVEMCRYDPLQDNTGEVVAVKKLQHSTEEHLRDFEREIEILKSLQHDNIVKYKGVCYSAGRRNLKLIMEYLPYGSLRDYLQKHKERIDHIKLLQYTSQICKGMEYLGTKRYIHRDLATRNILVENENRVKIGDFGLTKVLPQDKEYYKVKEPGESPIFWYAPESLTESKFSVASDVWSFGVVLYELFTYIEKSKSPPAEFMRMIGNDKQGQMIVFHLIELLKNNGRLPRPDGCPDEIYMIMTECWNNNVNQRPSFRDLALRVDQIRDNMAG
- RUN DESCRIPTION: Binding affinity to recombinant N-terminal His-FLAG-GST-tagged JAK2 (unknown origin) (826 to 1132 residues) expressed in baculovirus infected Sf9 insect cells incubated for 1 hr by TR-FRET assay
REPORTED ENDPOINT: Kd (nM)
Your answer should be a plain number; it is taken to be in nM.

Send back Tyrosine-protein kinase JAK2 (Homo sapiens) Kd of `CO[C@@H]1[C@H](NCCOCCOCCOCCNC(=O)CCC2=[N+]3C(=Cc4c(C)cc(C)n4[B-]3(F)F)C=C2)C[C@H]2O[C@]1(C)n1c3ccccc3c3c4c(c5c6ccccc6n2c5c31)C(=O)NC4` only. 14
